System: Maize weevil [Sitophilus zeamais (Motschulsky)]
Assay: Maize weevil on dipped corn seeds (MW), 48 hours
Assay type: in vivo
Settings: percent in solution, adult weevils
Description: The compounds in Tables 1 and 2 above were tested for insecticidal activity using the following testing procedures. LC50 values, based on the results of these tests and calculated according to dosage-mortality curves, are expressed in Table 3. Maize weevil [Sitophilus zeamais (Motschulsky)]: Test compounds were diluted in a 50:50 acetone:water solution. […] Mortality was recorded after 48 hours. […]
What LC50 MW was measured for each of the following?

Quick check: LC50 MW on Maize weevil [Sitophilus zeamais (Motschulsky)], item CC(C)C(=Nc1ccc(Cl)c(F)c1)OCc1ccc(F)c(Oc2ccc(F)cc2)c1 ?
0.006%

Quick check: LC50 MW on Maize weevil [Sitophilus zeamais (Motschulsky)], item C#CC(OC(=Nc1cccc(C(F)(F)F)c1)C(C)C)c1cccc(Oc2ccccc2)c1 (stereo not drawn) ?
> 0.01%

Quick check: LC50 MW on Maize weevil [Sitophilus zeamais (Motschulsky)], item CC(C)C(=Nc1ccc(Cl)c(Cl)c1)OCc1ccc(F)c(Oc2ccccc2)c1 ?
0.0061%

These entries and their values trace back to patent US5045566A.
